// provenance: paper PMC7426938

# Test system: zebrafish (ABiC) embryos
# methodDescription: Zebrafish embryo developmental toxicity assay
# Format: in vivo, zebrafish (Danio rerio)
# Set-up: unit not given here
# experimentalParameters: 48 hpf, 50 μM
readoutKind: Mean survival rate of zebrafish embryos

Examples from the recorded data:
>>> result("O=C1N[C@@H](Cc2ccccc2)C(=O)N2CCC[C@@H]12")
"80 ± 5.96"
>>> result("CC(C)[C@@H]1NC(=O)[C@@H]2CCCN2C1=O")
"80 ± 5.96"
>>> result("O=C1N[C@@H](Cc2ccc(O)cc2)C(=O)N2CCC[C@@H]12")
"79 ± 3.96"

Now consider a different compound.
Name the reported Mean survival rate of zebrafish embryos value associated with the compound CC(C)C[C@@H]1NC(=O)[C@@H]2CCCN2C1=O 70.88 ± 5.96

* * *

# Tested on: zebrafish (ABiC) embryos
# methodDescription: Zebrafish embryo developmental toxicity assay
# Assay type: in vivo, zebrafish (Danio rerio)
# Set-up: unit not given here
# experimentalParameters: 24 hpf, 100 μM
# Protocol: Laboratory animal care principles were followed and experimental procedures were conducted following guidelines established by the Institutional Animal Care, and Use Committee (IACUC), and every effort was made to minimize suffering. This study was approved by the IACUC of the Kaohsiung Medical University, Kaohsiung, Taiwan (Approval No: KMU-IACUC-105213). […]
readoutKind: Mean survival rate of zebrafish embryos

>>> result("O=C1N[C@@H](Cc2ccccc2)C(=O)N2CCC[C@@H]12 [DKP-3, cyclo (L-Pro-L-Phe)]")
"80 ± 5.96"
>>> result("O=C1N[C@@H](Cc2ccc(O)cc2)C(=O)N2CCC[C@@H]12 [DKP-4, cyclo (L-Pro-L-Tyr)]")
"82 ± 2.96"
>>> result("CC(C)[C@@H]1NC(=O)[C@@H]2CCCN2C1=O [DKP-2, cyclo (L-Pro-L-Val)]")
"82.22 ± 4.41"

Now consider a different molecule.
Name the reported Mean survival rate of zebrafish embryos value associated with the molecule CC(C)C[C@@H]1NC(=O)[C@@H]2CCCN2C1=O [DKP-1, cyclo (L-Pro-L-Leu)] 73.33 ± 5.96

* * *

# System: CM-Dil labelled HT-29 xenograft in zebrafish embryos
# methodDescription: Zebrafish HT-29 xenograft antitumor assay
# Assay type: in vivo, zebrafish (Danio rerio)
# experimentalParameters: 48 hpi, 200 μM
Measured inhibition of tumor growth rate, listed per entry for reference.
The reply should contain only the number, in %.

>>> result("CC(C)[C@@H]1NC(=O)[C@@H]2CCCN2C1=O [DKP-2, cyclo (L-Pro-L-Val)]")
58
>>> result("O=C1N[C@@H](Cc2ccccc2)C(=O)N2CCC[C@@H]12 [DKP-3, cyclo (L-Pro-L-Phe)]")
68
>>> result("CC(C)C[C@@H]1NC(=O)[C@@H]2CCCN2C1=O [DKP-1, cyclo (L-Pro-L-Leu)]")
57

Name the reported inhibition of tumor growth rate value associated with the compound O=C1N[C@@H](Cc2ccc(O)cc2)C(=O)N2CCC[C@@H]12 [DKP-4, cyclo (L-Pro-L-Tyr)] 60

* * *

# Test system: zebrafish (ABiC) embryos
# methodDescription: Zebrafish embryo developmental toxicity assay
# Type: in vivo, zebrafish (Danio rerio)
# Parameters: unit not given here
# experimentalParameters: 24 hpf, 50 μM
Measured Mean survival rate of zebrafish embryos, listed per entry for reference.

Examples from the recorded data:
>>> result("O=C1N[C@@H](Cc2ccccc2)C(=O)N2CCC[C@@H]12 [DKP-3, cyclo (L-Pro-L-Phe)]")
"80 ± 5.96"
>>> result("CC(C)C[C@@H]1NC(=O)[C@@H]2CCCN2C1=O [DKP-1, cyclo (L-Pro-L-Leu)]")
"70.88 ± 3.44"
>>> result("O=C1N[C@@H](Cc2ccc(O)cc2)C(=O)N2CCC[C@@H]12 [DKP-4, cyclo (L-Pro-L-Tyr)]")
"79 ± 3.96"

Now consider a different molecule.
Name the reported Mean survival rate of zebrafish embryos value associated with the molecule CC(C)[C@@H]1NC(=O)[C@@H]2CCCN2C1=O [DKP-2, cyclo (L-Pro-L-Val)] 77.77 ± 5.41
